ASSAY SYSTEM: recombinant murine DHODH (Mus musculus)
Construct: Prof; M. Löffler, Marburg, Germany (gift)
Sequence (O35435 whole entry): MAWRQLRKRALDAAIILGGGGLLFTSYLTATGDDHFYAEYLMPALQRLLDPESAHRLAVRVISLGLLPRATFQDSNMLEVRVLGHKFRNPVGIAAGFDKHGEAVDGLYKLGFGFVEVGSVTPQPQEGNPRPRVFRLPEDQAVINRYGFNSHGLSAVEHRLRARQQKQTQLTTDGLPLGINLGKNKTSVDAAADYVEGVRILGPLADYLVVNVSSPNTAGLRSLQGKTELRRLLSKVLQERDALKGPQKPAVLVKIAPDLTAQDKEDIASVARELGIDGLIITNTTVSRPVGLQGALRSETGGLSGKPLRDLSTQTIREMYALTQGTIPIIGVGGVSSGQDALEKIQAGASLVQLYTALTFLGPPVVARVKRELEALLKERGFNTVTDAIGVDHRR
ASSAY INFO: Inhibition assay of DHODH activity (murine enzyme)
Type: biochemical
ASSAY CONTEXT: class symbols, key in nM

COMPOUND: O=C(O)C1=C(C(=O)Nc2cc(Br)c(OCc3ccccc3)c(Br)c2)CSC1
IC50: > 1500 nM
//
COMPOUND: CCOc1ccccc1-c1cc(F)c(NC(=O)C2=C(C(=O)O)CCC2)c(F)c1
IC50: 800 to 1500 nM
//
COMPOUND: CCOc1cccc(-c2cc(F)c(NC(=O)C3=C(C(=O)O)CCC3)c(F)c2)c1
IC50: 800 to 1500 nM
//
COMPOUND: COc1ccccc1-c1cc(Cl)c(NC(=O)C2=C(C(=O)O)CCC2)c(Cl)c1
IC50: 800 to 1500 nM
//
COMPOUND: CCOc1cccc(-c2ccc(NC(=O)C3=C(C(=O)O)CCC3)c(F)c2)c1
IC50: > 1500 nM
//
COMPOUND: O=C(O)C1=C(C(=O)Nc2ccc(OCc3c(F)cccc3Cl)c(Cl)c2)CCC1
IC50: < 800 nM
//
COMPOUND: O=C(O)C1=C(C(=O)Nc2ccc(OCc3ccccc3F)c(Cl)c2)CCC1
IC50: < 800 nM
//
COMPOUND: COc1ccccc1-c1ccc(NC(=O)C2=C(C(=O)O)CCC2)c(C)c1
IC50: 800 to 1500 nM
//
COMPOUND: COc1ccccc1-c1c(F)c(F)c(NC(=O)C2=C(C(=O)O)CCC2)c(F)c1F
IC50: < 800 nM
//
COMPOUND: O=C(O)C1=C(C(=O)Nc2ccc(-c3ccccc3F)cc2)CCC1
IC50: > 1500 nM
//
COMPOUND: Cc1cccc(Sc2ccc(NC(=O)C3=C(C(=O)O)CCC3)cc2)c1
IC50: < 800 nM
//
COMPOUND: O=C(O)C1=C(C(=O)Nc2ccc(-c3cccc(F)c3)cc2F)CCC1
IC50: > 1500 nM
//
COMPOUND: COc1ccccc1-c1ccc(NC(=O)C2=C(C(=O)O)CCC2)cc1Cl
IC50: 800 to 1500 nM
//
COMPOUND: O=C(O)C1=C(C(=O)Nc2cc(Br)c(OCc3cc(F)ccc3F)c(Br)c2)CCC1
IC50: 800 to 1500 nM
//
COMPOUND: COc1cccc(-c2ccc(NC(=O)C3=C(C(=O)O)CCC3)c(F)c2)c1
IC50: > 1500 nM
//
COMPOUND: O=C(O)C1=C(C(=O)Nc2ccc(-c3ccccc3Cl)cc2)CCC1
IC50: > 1500 nM
//
COMPOUND: O=C(O)C1=C(C(=O)Nc2ccc(OCc3ccccc3C(F)(F)F)c(Cl)c2)CCC1
IC50: > 1500 nM
//
COMPOUND: O=C(O)C1=C(C(=O)Nc2ccc(-c3ccccc3Cl)cc2)CSC1
IC50: > 1500 nM
